The reported measurements were obtained from patent US20050234046A1.

Molecular target: PPAR delta (Homo sapiens, UniProt Q03181)
Sequence (Q03181 211-439 limits assumed): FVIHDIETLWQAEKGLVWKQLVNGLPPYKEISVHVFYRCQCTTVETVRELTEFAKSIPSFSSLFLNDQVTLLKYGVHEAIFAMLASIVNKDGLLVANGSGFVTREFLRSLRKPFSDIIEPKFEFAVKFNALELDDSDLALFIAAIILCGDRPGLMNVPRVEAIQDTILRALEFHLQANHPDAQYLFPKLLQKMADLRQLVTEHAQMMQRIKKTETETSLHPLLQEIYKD
Experiment: Transient transfection (transactivation) assay in CV-1 cells, GAL4-PPAR chimera, luciferase reporter
Reported EC50 is given for each of the following compounds.
measured property: EC50

INSERT INTO measurements (compound, reported) VALUES
  ('O=C(O)Cc1cccc(S(=O)(=O)N2CCC(c3ccc(Cl)cc3)CC2)c1 [Example 184]', '5 to 100 µM'),
  ('CC(C)(C)c1ccc(N2CCN(S(=O)(=O)c3cccc(CC(=O)O)c3)CC2)cc1 [Example 126]', '5 to 100 µM'),
  ('Cc1ccc(S(=O)(=O)N2CCN(c3ccc(Cl)c(Cl)c3)[C@@H](C)C2)cc1CC(=O)O [Example 102]', '< 5 µM'),
  ('Cc1cc(S(=O)(=O)N2[C@H](C)CN(c3ccc(OC(F)(F)F)cc3)C[C@@H]2C)cc(CC(=O)O)c1Br [Example 198]', '< 5 µM'),
  ('O=C(O)Cc1cccc(S(=O)(=O)N2CCN(c3ccc(F)cc3)CC2)c1 [Example 144]', '5 to 100 µM'),
  ('COc1cccc(N2CCN(S(=O)(=O)c3cccc(CC(=O)O)c3)CC2)c1 [Example 137]', '> 100 µM'),
  ('Cc1ccc(S(=O)(=O)N2CCCN(c3ncccc3C(F)(F)F)CC2)cc1CC(=O)O [Example 12]', '5 to 100 µM'),
  ('O=C(O)Cc1cccc(S(=O)(=O)N2CCN(c3ccccc3F)CC2)c1 [Example 141]', '5 to 100 µM'),
  ('Cc1ccc(N2CCN(S(=O)(=O)c3cccc(CC(=O)O)c3)CC2)c(C)c1 [Example 117]', '< 5 µM'),
  ('COC(=O)[C@H]1CN(S(=O)(=O)c2ccc(C)c(CC(=O)O)c2)CCN1c1ccc(C(F)(F)F)cn1 [Example 41]', '< 5 µM'),
  ('C[C@@H]1CN(c2ccc(C(F)(F)F)cn2)C[C@H](C)N1S(=O)(=O)c1ccc(O)c(CCC(=O)O)c1 [Example 193]', '5 to 100 µM'),
  ('Cc1ccc(S(=O)(=O)N2CCN(c3ncc(Cl)cn3)CC2)cc1CC(=O)O [Example 57]', '< 5 µM'),
  ('Cc1cc(CC(=O)O)cc(S(=O)(=O)N2CCN(c3ccccc3F)CC2)c1 [Example 172]', '> 100 µM'),
  ('Cc1cc(CC(=O)O)cc(S(=O)(=O)N2[C@H](C)CN(c3ccc(C(F)(F)F)cn3)C[C@@H]2C)c1 [Example 229]', '< 5 µM'),
  ('CCC1CN(c2ccc(C(F)(F)F)c(Cl)c2)CCN1S(=O)(=O)c1ccc(C)c(CC(=O)O)c1 (centres unmarked) [Example 98]', '< 5 µM'),
  ('C[C@@H]1CN(c2ccc(OC(F)(F)F)cc2)C[C@H](C)N1S(=O)(=O)c1ccc(O)c(CC(=O)O)c1 [Example 209]', '5 to 100 µM'),
  ('Cc1ccc(S(=O)(=O)N2CCCC(c3cccc(C(F)(F)F)c3)C2)cc1CC(=O)O (centres unmarked) [Example 16]', '5 to 100 µM');

====

Reported pEC50 is given for each of the following molecules.
Target: PPAR delta (Homo sapiens)
Assay: Transient transfection (transactivation) assay in CV-1 cells, GAL4-PPAR chimera, luciferase reporter
pEC50: −log10 of the molar value.
measured property: pEC50

INSERT INTO measurements (molecule, reported) VALUES
  ('Cc1ccc(N2CCN(S(=O)(=O)c3cccc(CC(=O)O)c3)CC2)cc1C [Example 119]', '4.00 to 5.30'),
  ('N#Cc1ccc(N2CCN(S(=O)(=O)c3cccc(CC(=O)O)c3)CC2)cc1 [Example 122]', '4.00 to 5.30'),
  ('O=C(O)Cc1cccc(S(=O)(=O)N2CCN(c3ccc(Cl)cc3)CC2)c1 [Example 116]', '> 5.30');

====

Biological target: PPAR alpha (Homo sapiens, UniProt Q07869)
Sequence (Q07869 239-466 limits assumed): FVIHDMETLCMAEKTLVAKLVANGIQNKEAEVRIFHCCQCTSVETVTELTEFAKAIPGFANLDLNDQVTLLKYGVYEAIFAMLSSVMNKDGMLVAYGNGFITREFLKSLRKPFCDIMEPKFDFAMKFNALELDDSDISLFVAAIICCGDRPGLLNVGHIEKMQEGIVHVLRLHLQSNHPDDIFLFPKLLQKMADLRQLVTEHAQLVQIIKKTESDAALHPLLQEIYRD
Assay: Transient transfection (transactivation) assay in CV-1 cells, GAL4-PPAR chimera, luciferase reporter
measured property: EC50

INSERT INTO assay_data (compound, reported) VALUES
  ('COc1cccc(N2CCN(S(=O)(=O)c3cccc(CC(=O)O)c3)CC2)c1 [Example 137]', '> 100 µM'),
  ('CC(C)(OCc1cccc(S(=O)(=O)N2CCN(c3ccc(C(F)(F)F)cc3)CC2)c1)C(=O)O [Example 212]', '5 to 100 µM'),
  ('Cc1ccc(Cl)cc1N1CCN(S(=O)(=O)c2cccc(CC(=O)O)c2)CC1 [Example 120]', '> 100 µM'),
  ('Cc1ccc(S(=O)(=O)N2CCCN(c3ccc(C(F)(F)F)cn3)CC2)cc1CC(=O)O [Example 8]', '5 to 100 µM');

====

Reported pEC50 is given for each of the following molecules.
Target: PPAR alpha (Homo sapiens)
Assay: Transient transfection (transactivation) assay in CV-1 cells, GAL4-PPAR chimera, luciferase reporter
pEC50: −log10 of the molar value.
measured property: pEC50

INSERT INTO results (molecule, tgt, reported) VALUES
  ('Cc1ccc(S(=O)(=O)N2CCN(c3ccc(C(F)(F)F)cn3)CC2)cc1CC(=O)O', 'PPAR alpha (Homo sapiens)', '4.00 to 5.30'),
  ('O=C(O)Cc1cccc(S(=O)(=O)N2CCN(c3ccc(C(F)(F)F)cc3)CC2)c1', 'PPAR alpha (Homo sapiens)', '4.00 to 5.30'),
  ('Cc1ccc(S(=O)(=O)N2CCN(c3nc4ccccc4s3)CC2)cc1CC(=O)O', 'PPAR alpha (Homo sapiens)', '> 5.30'),
  ('Cc1ccc(C)c(N2CCN(S(=O)(=O)c3cccc(CC(=O)O)c3)CC2)c1', 'PPAR alpha (Homo sapiens)', '< 4.00'),
  ('COCc1cc(CC(=O)O)cc(S(=O)(=O)N2CCN(c3ccc(C(F)(F)F)cc3)CC2)c1', 'PPAR alpha (Homo sapiens)', '< 4.00'),
  ('Cc1ccc(S(=O)(=O)N2CCN(c3nc(Cl)c(Cl)s3)CC2)cc1CC(=O)O', 'PPAR alpha (Homo sapiens)', '4.00 to 5.30'),
  ('COc1ccc(N2CCN(S(=O)(=O)c3ccc(C)c(CC(=O)O)c3)CC2)cc1OC', 'PPAR alpha (Homo sapiens)', '< 4.00'),
  ('COc1ccc(S(=O)(=O)N2[C@H](C)CN(c3ccc(C(F)(F)F)cn3)C[C@@H]2C)cc1CCC(=O)O', 'PPAR alpha (Homo sapiens)', '< 4.00'),
  ('O=C(O)Cc1cccc(S(=O)(=O)N2CCN(c3ccc([N+](=O)[O-])cc3)CC2)c1', 'PPAR alpha (Homo sapiens)', '< 4.00'),
  ('Cc1ccc(S(=O)(=O)N2C[C@H](C)N(c3ccc(C(F)(F)F)cn3)C[C@H]2C)cc1CC(=O)O (mixture of isomers)', 'PPAR alpha (Homo sapiens)', '< 4.00'),
  ('Cc1ccc(S(=O)(=O)N2CCN(c3ccc(C(F)(F)F)cc3)CC2)cc1CC(=O)O', 'PPAR alpha (Homo sapiens)', '4.00 to 5.30');

====

Target: PPAR delta (Homo sapiens, UniProt Q03181)
Test: Transient transfection (transactivation) assay in CV-1 cells, GAL4-PPAR chimera, luciferase reporter
pEC50: −log10 of the molar value.
measured property: pEC50

INSERT INTO results (compound, measured_property, reported) VALUES
  ('O=C(O)Cc1cccc(S(=O)(=O)N2CCN(c3cccc(Cl)c3)CC2)c1 [Example 139]', 'pEC50', '4.00 to 5.30'),
  ('Cc1ccc(Cl)cc1N1CCN(S(=O)(=O)c2cc(CC(=O)O)ccc2C)CC1 [Example 151]', 'pEC50', '< 4.00'),
  ('Cc1ccc(S(=O)(=O)N2[C@H](C)CN(c3ccc(C(F)(F)F)c(F)c3)C[C@@H]2C)cc1CC(=O)O [Example 68]', 'pEC50', '> 5.30'),
  ('Cc1ccc(S(=O)(=O)N2CCN(c3ncccn3)CC2)cc1CC(=O)O [Example 47]', 'pEC50', '4.00 to 5.30'),
  ('Cc1ccc(S(=O)(=O)N2[C@@H](C)CN(c3ccc(C(F)(F)F)cn3)C[C@@H]2C)cc1CC(=O)O [Example 103]', 'pEC50', '> 5.30'),
  ('COc1ccc(S(=O)(=O)N2[C@H](C)CN(c3ccc(C(F)(F)F)cn3)C[C@@H]2C)cc1CC(=O)O [Example 78]', 'pEC50', '> 5.30'),
  ('Cc1ccc(S(=O)(=O)N2[C@H](C)CN(c3nc4ccccc4o3)C[C@@H]2C)cc1CC(=O)O [Example 24]', 'pEC50', '4.00 to 5.30'),
  ('CC(C)(OCc1cccc(S(=O)(=O)N2CCN(c3ccc(C(F)(F)F)cc3)CC2)c1)C(=O)O [Example 212]', 'pEC50', '< 4.00'),
  ('Cc1ccc(CC(=O)O)cc1S(=O)(=O)N1CCC(c2ccc(Cl)cc2)CC1 [Example 1]', 'pEC50', '> 5.30'),
  ('Cc1cc(CC(=O)O)cc(S(=O)(=O)N2CCN(c3ccc(C(F)(F)F)cn3)CC2)c1 [Example 225]', 'pEC50', '> 5.30'),
  ('Cc1cc(CC(=O)O)cc(S(=O)(=O)N2CCN(c3ccc(F)cc3F)CC2)c1 [Example 170]', 'pEC50', '4.00 to 5.30');
